# assay-info: Toxicity in id dosed rabbit
# Format: organism-based, Oryctolagus cuniculus
# test-conditions: in vivo
reported-property: LD50

### Prompt Given CCOC(=O)c1ccccc1S(=O)(=O)NC(=O)Nc1nc(Cl)cc(OC)n1 , state its recorded LD50.
### Response > 2000 mg/kg

====

Provide the reported MIC50 of each item.
# System: Candida albicans
# assay-info: Antifungal activity against Candida albicans after 72 hrs by broth microdilution method
# Assay type: functional

Below: 5 molecules and their reported MIC50.
CCOC(=O)c1ccccc1S(=O)(=O)NC(=O)Nc1nc(I)cc(OC)n1	0.6 µM
COc1cc(Br)nc(NC(=O)NS(=O)(=O)c2ccccc2C(=O)OCCCl)n1	15 µM
COc1cc(I)nc(NC(=O)NS(=O)(=O)c2ccccc2C(=O)OCCO)n1	> 25 µM
COc1cc(Br)nc(NC(=O)NS(=O)(=O)c2ccccc2C(=O)OCCBr)n1	> 25 µM
CCOc1ccccc1OS(=O)(=O)NC(=O)Nc1nc(OC)cc(OC)n1	2 µM

Please supply MIC50 for each of the following items, keeping them in order.
1. COc1cc(Cl)nc(NC(=O)NS(=O)(=O)c2ccccc2C(=O)OCCO[Si](C)(C)C(C)(C)C)n1
2. COC(=O)c1ccccc1S(=O)(=O)NC(=O)Nc1nc(Br)cc(OC)n1
3. COC(=O)c1ccccc1S(=O)(=O)NC(=O)Nc1nc(Cl)cc(OC)n1
4. COc1cc(Br)nc(NC(=O)NS(=O)(=O)c2ccccc2C(=O)OCCO)n1

### Response
> 25 µM
1 µM
3 µM
> 25 µM
